- Tested on: Staphylococcus aureus
- assay.summary: Antibacterial activity against methicillin-resistant Staphylococcus aureus MRSA 4591 after 24 hrs
- Type: functional, organism-based
Activity calls are given as the source filed them. The rule behind the calls is not given here.
readout.label: Activity

Solved cases (5 shown):
{"mol.smiles": "CNc1ncnc2c1ccn2[C@@H]1O[C@H](CO)[C@@H](O)[C@H]1O", "test.result": "inactive"}
{"mol.smiles": "CSc1ncnc2c1ccn2[C@@H]1O[C@H](CO)[C@@H](O)[C@H]1O", "test.result": "inactive"}
{"mol.smiles": "COc1ncnc2c1c(-c1cc3ccccc3o1)cn2[C@@H]1O[C@H](CO)[C@@H](O)[C@H]1O", "test.result": "inactive"}
{"mol.smiles": "Nc1nc(N)c2c(-c3ccccc3)cn([C@@H]3O[C@H](CO)[C@@H](O)[C@H]3O)c2n1", "test.result": "inactive"}
{"mol.smiles": "COc1nc(N)nc2c1c(-c1cc3ccccc3o1)cn2[C@@H]1O[C@H](CO)[C@@H](O)[C@H]1O", "test.result": "inactive"}

Retrieve Activity measured for `CN(C)c1ncnc2c1c(-c1ccco1)cn2[C@@H]1O[C@H](CO)[C@@H](O)[C@H]1O` and print it.
inactive

Retrieve Activity measured for `C#Cc1cn([C@@H]2O[C@H](CO)[C@@H](O)[C@H]2O)c2ncnc(OC)c12` and print it.
inactive

Retrieve Activity measured for `O=c1[nH]cnc2c1c(-c1cc3ccccc3o1)cn2[C@@H]1O[C@H](CO)[C@@H](O)[C@H]1O` and print it.
inactive

Retrieve Activity measured for `C#Cc1cn([C@@H]2O[C@H](CO)[C@@H](O)[C@H]2O)c2nc(C)nc(N)c12` and print it.
inactive
